Hey, just so you know, these numbers are from PubChem BioAssay (NCATS).

- Tested on: CP194
- assay-explanation: qHTS profiling for inhibitors of Plasmodium falciparum proliferation (AID 504749); further: nearly all actives have a fitted effect of over 60% in size
- assay-context: P. falciparum in erythrocytes, SYBR Green DNA, 72 h; series mostly up to 28.7 µM
Records with an inconclusive call do not appear. The source made the active and inactive calls. The call rests on the fitted dose curve; in most records, active means well fitted inhibition curve with a large enough effect; inconclusive means small, poorly fitted or top-dose-only effect; inactive means flat fitted curve, though single readings scatter.
In this exercise, the only acceptable responses are label 1 for active, label 0 for inactive

Q) Given OCCN1CCN(CCCN2c3ccccc3C=Cc3ccccc32)CC1 , state the outcome it received in this test.
A) label 1

Q) Repeat with CCN(Cc1ccncc1)C(=O)C(CO)c1ccccc1 (stereo unspecified)
A) label 0

Q) Same question, COC(=O)[C@@H](N)Cc1ccc(O)c(O)c1 this time
A) label 0

Q) Continue with OCCN1CCN(CC/C=C2/c3ccccc3Sc3ccc(C(F)(F)F)cc32)CC1
A) label 1

Q) Consider next the compound COCC(=O)O[C@]1(CCN(C)CCCc2nc3ccccc3[nH]2)CCc2cc(F)ccc2[C@@H]1C(C)C in the same way.
A) label 1

Q) What do you get for NC(=O)N1c2ccccc2C=Cc2ccccc21 ?
A) label 0

Q) Entry to check: CC(C(=O)O)c1ccc(CC2CCCC2=O)cc1 (stereo unspecified)
A) label 0

Q) Now this one: CCN(CC)CCNC(=O)c1ccc(NC(C)=O)cc1
A) label 0

Q) Now consider Cc1scc2c1N(C(=O)CN1CCN(C)CC1)c1ccccc1NC2=O and answer again.
A) label 0

Q) Try the compound c1cnc(N2CCN(Cc3ccc4c(c3)OCO4)CC2)nc1
A) label 0

Q) Cool, now CC(=O)[C@@]1(O)CC[C@H]2[C@@H]3CCC4=CC(=O)CC[C@]4(C)[C@H]3CC[C@@]21C
A) label 0

* * *

- assay-explanation: qHTS of pediatric cancer cell lines to identify multiple opportunities for drug repurposing: Primary screen for SK-N-MC cells (AID 1347093); further: potency means the concentration at half of the fitted maximal effect
- assay-context: SK-N-MC viability, CellTiter-Glo luminescence, 48 h; series mostly up to 46 µM
- Description: Drug repurposing or repositioning has been offered as a strategy for drug development in oncology programs. […] [1] Shen, M et al. Quantitative high-throughput phenotypic screening of pediatric cancer cell lines identifies multiple opportunities for drug repurposing. […] Cells were assayed in growth media at a density of 500-1,000 cells/well. […] After a 15 min incubation at room temperature, samples were analyzed for luminescence intensity using a ViewLux High-throughput CCD imager equipped with clear filters.
Inconclusive results are not listed. Calls of active or inactive are those of the source. Calls come from the whole dose curve; as a rule, active = well fitted cell-killing curve with a large enough effect; inconclusive = small, poorly fitted or top-dose-only effect; inactive = no such curve, though single readings can be large or run the other way.
readout-label: Potency

Some compounds with known Potency results, for comparison:
smiles-representation | Potency
NC(=O)N1c2ccccc2C=Cc2ccccc21 | inactive
NC(=O)c1cn(Cc2c(F)cccc2F)nn1 | inactive
C[C@]12C=CC(=O)C=C1CC[C@H]1[C@@H]3C[C@@H](O)[C@](O)(C(=O)CO)[C@@]3(C)C[C@H](O)[C@@]12F | inactive
Brc1c(NC2=NCCN2)ccc2nccnc12 | inactive
CCCCOCCOCCOCc1cc2c(cc1CCC)OCO2 | inactive

Q) Which measured Potency value corresponds to Cc1cc(C)c(/C=C2\C(=O)Nc3ccccc32)[nH]1 ?
A) 18.8 µM (active)

Q) And the next one, c1cnc(N2CCN(Cc3ccc4c(c3)OCO4)CC2)nc1 ?
A) inactive

Q) Request: CN(C(=O)CCCOc1ccc2[nH]c(=O)ccc2c1)C1CCCCC1
A) inactive
